Every entry's value here was drawn from paper PMC2946844.

- EXPERIMENTAL SYSTEM: T1, 1xMBD-GFP (UniProt Q9Z2E2 1-75)
- T1 sequence: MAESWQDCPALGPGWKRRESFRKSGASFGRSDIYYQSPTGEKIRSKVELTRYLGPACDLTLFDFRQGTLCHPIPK
- TEST: SPR
Classify: fulfilled when Kd is strictly less than 3 µM; not fulfilled when Kd is not.

BINDER	CLASSIFICATION
o_o_m/m_o_o (dsDNA, strand 1 5mC17; strand 2 5mC17) DNA 1: TTTGCGGTCCGCTGCCCGACCC DNA 2: GGGTCGGGCAGCGGACCGCAAA	not fulfilled
o_m_m/o_m_m (dsDNA, strand 1 5mC10,5mC17; strand 2 5mC5,5mC12) DNA 1: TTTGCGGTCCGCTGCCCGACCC DNA 2: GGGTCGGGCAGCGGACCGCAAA	fulfilled
m_o_o*/o_o_o (dsDNA, strand 1 5mC9) DNA 1: GTAGTTTGCGGTCCGCTGCCCGACC DNA 2: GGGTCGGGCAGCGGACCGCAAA	not fulfilled
o_o_o_m/o_o_o_o (dsDNA, strand 1 5mC23) DNA 1: GAAGTCAACAGGACGGACGCCGCGCAA DNA 2: CTCTTTCTTTGCGCGGCGTCCGTCCTGTTGACTTCCTCT	not fulfilled
o_o_m_o/o_o_m_m (dsDNA, strand 1 5mC21; strand 2 5mC12,5mC14) DNA 1: GAAGTCAACAGGACGGACGCCGCGCAA DNA 2: CTCTTTCTTTGCGCGGCGTCCGTCCTGTTGACTTCCTCT	fulfilled
o_o_o/m_m_m (dsDNA, strand 2 5mC5,5mC12,5mC17) DNA 1: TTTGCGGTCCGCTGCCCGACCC DNA 2: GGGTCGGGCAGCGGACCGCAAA	not fulfilled
o_o_o_o/o_o_o_o (dsDNA) DNA 1: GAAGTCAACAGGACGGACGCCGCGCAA DNA 2: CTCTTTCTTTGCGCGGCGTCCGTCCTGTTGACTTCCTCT	not fulfilled
o_m_m/m_o_o (dsDNA, strand 1 5mC10,5mC17; strand 2 5mC17) DNA 1: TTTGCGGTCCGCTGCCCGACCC DNA 2: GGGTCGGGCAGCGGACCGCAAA	not fulfilled
o_o_o_m/o_o_m_m (dsDNA, strand 1 5mC23; strand 2 5mC12,5mC14) DNA 1: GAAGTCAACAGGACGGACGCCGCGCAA DNA 2: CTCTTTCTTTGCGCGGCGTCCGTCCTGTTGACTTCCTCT	fulfilled
o_m_o_o/o_o_m_o (dsDNA, strand 1 5mC18; strand 2 5mC14) DNA 1: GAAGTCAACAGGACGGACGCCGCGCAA DNA 2: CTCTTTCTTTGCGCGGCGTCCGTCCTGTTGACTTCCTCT	not fulfilled

stdin: Does o_o_o/o_o_o (dsDNA) DNA 1: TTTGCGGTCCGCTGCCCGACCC DNA 2: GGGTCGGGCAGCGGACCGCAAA have Kd strictly under 3 µM?
stdout: not fulfilled
